- System: rat aorta
- PROTOCOL_DESCRIPTION: Vasodilation effects on isolated blood vessels of rats (methoxamine-constricted aortic rings)
- Format: cell-based
- CONDITION_NOTES: isolated rat aorta constricted with methoxamine (3 uM); read-out: Vasodilation Activity (in Vitro, rat aorta) (IC50)
RECORDED_METRIC: IC50

// below: answered compounds
COC(OC)[C@@]1(C)Oc2ccc(NC(C)=O)cc2[C@@H](NC(=NC#N)NCc2ccccc2)[C@@H]1O = > 30 µM
COC(OC)[C@@]1(C)Oc2ccc(N)cc2[C@@H](NC(=NC#N)NCc2ccccc2)[C@@H]1O = > 30 µM

The record that follows has no IC50 shown yet.
**Q:** Hello, please tell me recorded IC50 for this one: COC(OC)[C@@]1(C)Oc2ccc([N+](=O)[O-])cc2[C@@H](NC(=NC#N)NCc2ccccc2)[C@@H]1O
**A:** > 30 µM

// data source = patent EP1228058B1
